System: SK-MEL-5 melanoma
ASSAY_DETAILS: NCI-60 one-dose screen, 48 h (100 = growth as untreated, 0 = no growth, -100 = all killed)
CONDITION_SET: 10 µM unless noted
The panel holds about 83,000 compounds, 20% with a hit somewhere; the sample as a whole holds those more often.
# maps each entry to its growth
Please give a number only; it is taken to be in %.

Consider the worked cases shown below.
- COMPOUND: "Cc1nn(-c2ccccc2)c2nc3c(c(-c4ccc(Cl)cc4)c12)CNC1(CCSCC1)N3"
  ASSAYED_TARGET: "SK-MEL-5 melanoma"
  growth / %: 99.1
- COMPOUND: "Cn1ccc2c(c1=O)C(=O)c1nccc3c1c-2nc1ccccc13"
  ASSAYED_TARGET: "SK-MEL-5 melanoma"
  growth / %: 95
- COMPOUND: "O=c1c2cc(F)ccc2sc2c(NCCCN3CCCC3)nc3ccccc3c12"
  ASSAYED_TARGET: "SK-MEL-5 melanoma"
  growth / %: 58.8
- COMPOUND: "COc1cc(C2NC(=O)c3ccccc3N2)ccc1OCCCCCOc1c(OC)cc(C2=NOC(c3cc(OC)c(OC)c(OC)c3)C2)cc1OC (stereo not given)"
  ASSAYED_TARGET: "SK-MEL-5 melanoma"
  growth / %: -2.4
- COMPOUND: "O=C(/C=C/c1c(Cl)nc2sccn12)c1ccc(F)c(F)c1"
  ASSAYED_TARGET: "SK-MEL-5 melanoma"
  growth / %: 66.4

Need growth of "COc1ccc2[nH]c(O)c(/C=c3/cc4c(c(-c5ccc(F)c(OC)c5)n3)=Nc3ccccc3-4)c2c1" , thanks.
57.2

Need growth of "CCN(CC)c1nc(SCC(=O)Nc2nc3ccc(C)cc3s2)nc(-c2ccccc2)c1C#N" , thanks.
90.2

Need growth of CC(CN1CCCCC1)C(=O)c1ccccc1 (stereo not given) , thanks.
102

Need growth of "c1csc(-c2c3ccc(=[N+]4CCCCC4)cc-3oc3cc(N4CCCCC4)ccc23)c1" , thanks.
-90.5

Need growth of "COc1cccc(-c2nc3sccn3c2-c2ccnc(NCCNS(=O)(=O)c3cccc(Cl)c3)c2)c1" , thanks.
20.2

Need growth of CC(=O)n1c(-c2ccc(Cl)cc2)nc2c(c1=O)C(c1ccc(Cl)cc1)c1sc3c(Cl)cccc3c1O2 (stereo not given) , thanks.
-17.7

Need growth of "Cn1c(-c2c(N)n(Cc3cccnc3)c3nc(C#N)c(C#N)nc23)nc2ccccc21" , thanks.
89.2

Need growth of "N#Cc1nc2c(S(=O)(=O)c3ccc(Cl)cc3)c(N)n(Nc3cccc(Cl)c3)c2nc1C#N" , thanks.
42.8

Need growth of "N=C(N)c1ccc(-c2ccc(-c3cncc4ccccc34)s2)s1" , thanks.
-89.5

Need growth of "COc1cccc(-c2nn(-c3ccccc3)cc2-c2ccnc(NCCNC(=O)Nc3ccc(Cl)c(Cl)c3)c2)c1" , thanks.
3.01

Need growth of COc1ccc(Cl)cc1NC(=O)C(Br)C(Br)C(=O)O (stereo not given) , thanks.
-82.2

Need growth of "Cc1c(C(=O)OC(=NC2CCCCC2)NC2CCCCC2)sc2c1c(=O)nc1c(C#N)n[nH]n12" , thanks.
110

Need growth of "NC(=O)c1ccc[n+](Cc2ccc(Cl)cc2Cl)c1" , thanks.
97.6

Need growth of "Cc1c2c(c(C)c3c1oc1cc(O)ccc13)C(=O)N(CCN1CCCCC1)C2=O" , thanks.
96

Need growth of "C=CCn1c(C)nc2cc(Nc3nc(Cl)nc4ccccc34)ccc21" , thanks.
91.4

====

Test system: ACHN renal
ASSAY_DETAILS: NCI-60 one-dose screen, 48 h (100 = growth as untreated, 0 = no growth, -100 = all killed)
CONDITION_SET: 10 µM unless noted
About 83,000 compounds went through this panel and 20% of them were active in at least one assay; those are over-represented in the sample as a whole. Calls of active or inactive are those of the source. Rule for the calls: active = growth percent below 10; inactive = the rest.
# maps each entry to its growth

Consider the worked cases shown below.
- COMPOUND: "COc1ccc(-c2cc(-c3cc(OC)c(OC)c(OC)c3)c(C#N)c(N3CCOCC3)n2)cc1O"
  ASSAYED_TARGET: "ACHN renal"
  growth: "66.7% (inactive)"
- COMPOUND: "CN(C)CC1=NC2SC=C(c3ccccc3)C2C(=O)N1CC#N (stereo not given)"
  ASSAYED_TARGET: "ACHN renal"
  growth: "104% (inactive)"
- COMPOUND: "COc1cc(C2CC(=O)Nc3c2c(C)nn3-c2nc3ccccc3[nH]2)c(OC)c2c1OCO2 (stereo not given)"
  ASSAYED_TARGET: "ACHN renal"
  growth: "86.2% (inactive)"

Need growth of "O=C1/C(=C/c2ccc(Br)cc2)C=C(c2ccccc2)N1CCc1ccccc1" , thanks.
13% (inactive)

Need growth of "C=C(C)[C@@H]1CC[C@]2(C)[C@H](CC=C3[C@@H]4CC(C)(C)CC[C@]4(C(N)=O)CC[C@]32C)[C@@]1(C)CCC#N" , thanks.
20.8% (inactive)

====

Tested on: NCI-H226 lung
ASSAY_DETAILS: NCI-60 one-dose screen, 48 h (100 = growth as untreated, 0 = no growth, -100 = all killed)
CONDITION_SET: 10 µM unless noted
This is part of a sample that, as a whole, favours compounds with a hit. Of some 83,000 tested, about 20% had one in any assay.
PROPERTY_LABEL: growth (%)
Please give a number only; it is taken to be in %.

Consider the worked cases shown below.
- MOL_SMILES: "CCCCCCCCCCCCCCCCCCOc1ccc(CC(=O)OCC[N+]2(C)CCCC2)cc1"
  UNIT_OF_MEASUREMENT: "%"
  growth: 92.6
- MOL_SMILES: "CCOC(=O)c1ccc(N2NC(=O)/C(=C/c3ccc([N+](=O)[O-])o3)C2=O)cc1"
  UNIT_OF_MEASUREMENT: "%"
  growth: 120
- MOL_SMILES: "O=S(=O)(O)c1ccc(N/N=C/c2ccccc2Cl)cc1"
  UNIT_OF_MEASUREMENT: "%"
  growth: 111
- MOL_SMILES: "COc1ccc(-c2cc(-c3ccc(Nc4nc(Nc5ccc(Cl)cc5)nc(Nc5ccc(Cl)cc5)n4)cc3)nc(N)c2C#N)cc1"
  UNIT_OF_MEASUREMENT: "%"
  growth: 9.85
- MOL_SMILES: "Cc1ccc(S(=O)(=O)N/N=C\\c2cc(Cl)ccc2O)cc1"
  UNIT_OF_MEASUREMENT: "%"
  growth: 96.4

Need growth of "Cc1cc(NCc2cc(Nc3ccnc4cc(Cl)ccc34)ccc2F)nc(N2CCN(c3ccccc3)CC2)n1" , thanks.
55.4

Need growth of "CCCCCc1nc2c(c3c1CCCC3)CCCC2" , thanks.
88.6

Need growth of "Cc1cccc(NC(=O)CSc2nc3ccccc3[nH]2)c1" , thanks.
92

Need growth of "Cc1ccc2[nH]c(=O)c3c(c2c1)OC(N)=C(C#N)C31c2cc(Br)ccc2-c2ccc(Br)cc21" , thanks.
58.7

Need growth of "COc1cccc(-c2nn(-c3ccccc3)cc2-c2ccnc(NCCNC(=O)Nc3ccc(Cl)c(Cl)c3)c2)c1" , thanks.
50.5

====

Test system: NCI-H226 lung
ASSAY_DETAILS: NCI-60 one-dose screen, 48 h
CONDITION_SET: 10 µM unless noted
The panel holds about 83,000 compounds, 20% with a hit somewhere; the sample as a whole holds those more often. Activity calls are given as the source filed them. Rule for the calls: active = growth percent below 10; inactive = the rest.
Output constraint: value belongs to Yes for active, No for inactive

Here's what some known entries look like.
- COMPOUND: "COc1ccc(OC)c2c1[nH]c(=O)c1c3ncccc3cn21"
  LABEL_CLASS: "No"
- COMPOUND: "CN(C)CCC=C1c2ccccc2C(C)(C)c2ccccc21"
  LABEL_CLASS: "No"
- COMPOUND: "CCCCCCCCCCCCCCCCCCOc1ccccc1CC(=O)OCCC[N+](C)(C)C"
  LABEL_CLASS: "No"
- COMPOUND: "COc1ccc(C(=O)Nn2c(NCC(=O)N3c4ccccc4Sc4ccccc43)nnc2-c2ccc(O)cc2)cc1"
  LABEL_CLASS: "No"

State the result this test recorded for CC(=O)OC1CCC2(C)C(=CC3C4CCC(=O)C4(C)CCC32)C1 (stereo unspecified) .
No

State the result this test recorded for Cc1c(C(=O)NC(Cc2ccccc2)C(O)C(=O)NCc2ccc(F)cc2)[nH]c2ccccc2c1=O (stereo unspecified) .
No

State the result this test recorded for N#CC1=C(NC=O)Oc2c(ccc3ccccc23)C1c1ccccc1 (stereo unspecified) .
No

State the result this test recorded for "Cc1cc(/C=C\c2ccc3ccccc3[n+]2C)c(O)c2ncccc12" .
Yes

State the result this test recorded for "CCCCn1c(=O)c2c(nc(NCCc3ccc(O)c(O)c3)n2CCC)n(CCCC)c1=O" .
No

State the result this test recorded for N#C/C(=C/C=C/c1cccc(Cl)c1)S(=O)c1ccccc1 (stereo unspecified) .
Yes

State the result this test recorded for "CC(C)C(=O)Nc1n[nH]c2cc(-c3cccc(NS(=O)(=O)C4CC4)c3)ccc12" .
No

State the result this test recorded for "CCCCCCCCCCCCCCCCCC1=NCCN1CCOC1=C(Cl)C(=O)c2ccccc2C1=O" .
No

State the result this test recorded for "Nc1ccc2c(c1)c(N)nn2C(=O)Nc1ccc(Cc2ccccc2)cc1" .
No

State the result this test recorded for "FC(F)(F)c1cc(Nc2ccc3cc(OCCCN4CCOCC4)ccc3n2)ccc1Cl" .
No

State the result this test recorded for "O=Cc1ccc(O)c2ncccc12" .
No

State the result this test recorded for CCCCCCCCCOc1c(OC)cc(C2CC(=O)Nc3c2c(C)nn3-c2nc3ccccc3[nH]2)cc1OC (stereo unspecified) .
Yes
